Listing of recorded pIC50 by entry.
system under test: human insulin receptor cytoplasmic domain (βIRCD) (Homo sapiens, UniProt P06213)
Construct: human insulin receptor cytoplasmic domain (βIRCD); host or cells: baculovirus expression system
Sequence (P06213 980-1382 limits assumed): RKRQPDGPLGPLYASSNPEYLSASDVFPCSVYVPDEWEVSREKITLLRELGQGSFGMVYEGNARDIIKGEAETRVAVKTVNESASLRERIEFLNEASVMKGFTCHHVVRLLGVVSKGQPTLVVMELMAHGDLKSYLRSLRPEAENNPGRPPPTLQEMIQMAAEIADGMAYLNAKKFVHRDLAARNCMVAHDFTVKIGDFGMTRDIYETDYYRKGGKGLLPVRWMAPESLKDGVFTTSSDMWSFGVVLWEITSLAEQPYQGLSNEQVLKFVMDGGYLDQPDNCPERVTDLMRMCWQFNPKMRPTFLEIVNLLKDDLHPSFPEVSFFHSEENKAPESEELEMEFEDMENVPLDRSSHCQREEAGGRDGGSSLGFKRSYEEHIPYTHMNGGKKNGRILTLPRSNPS
assay procedure: Insulin Receptor Kinase Assay (TRF)
Type: biochemical
measurement context: 20 μM ATP; average of two or more determinations; class symbols; read-out: IR IC50
pIC50: −log10 of the molar value.

COc1cc(C2CCN(C)CC2)c2cc1Nc1ncc(Cl)c(n1)Nc1cc(ccc1N(C)S(C)(=O)=O)CC2 :: 6.00 to 7.00

What value of pIC50 has been reported for the following compound? "COc1cc(N2CCN(C)CC2)c2cc1Nc1ncc(Cl)c(n1)Nc1cc(ccc1N(C)S(C)(=O)=O)/C=C\2"
5.00 to 6.00

What value of pIC50 has been reported for the following compound? "CN1CCN(c2ccc3cc2CCc2ccc(S(C)(=O)=O)c(c2)Nc2nc(ncc2Cl)N3)CC1"
6.00 to 7.00

What value of pIC50 has been reported for the following compound? "Clc1cnc2nc1Nc1cccc(c1)/C=C\c1cc(ccc1OCCN1CCCC1)N2"
5.00 to 6.00

###

Listing of recorded pIC50 by entry.
system under test: recombinant human FAK (Homo sapiens, UniProt Q05397)
Construct: purchased Invitrogen PV3832; host or cells: baculovirus expression system
Sequence (Q05397 whole entry): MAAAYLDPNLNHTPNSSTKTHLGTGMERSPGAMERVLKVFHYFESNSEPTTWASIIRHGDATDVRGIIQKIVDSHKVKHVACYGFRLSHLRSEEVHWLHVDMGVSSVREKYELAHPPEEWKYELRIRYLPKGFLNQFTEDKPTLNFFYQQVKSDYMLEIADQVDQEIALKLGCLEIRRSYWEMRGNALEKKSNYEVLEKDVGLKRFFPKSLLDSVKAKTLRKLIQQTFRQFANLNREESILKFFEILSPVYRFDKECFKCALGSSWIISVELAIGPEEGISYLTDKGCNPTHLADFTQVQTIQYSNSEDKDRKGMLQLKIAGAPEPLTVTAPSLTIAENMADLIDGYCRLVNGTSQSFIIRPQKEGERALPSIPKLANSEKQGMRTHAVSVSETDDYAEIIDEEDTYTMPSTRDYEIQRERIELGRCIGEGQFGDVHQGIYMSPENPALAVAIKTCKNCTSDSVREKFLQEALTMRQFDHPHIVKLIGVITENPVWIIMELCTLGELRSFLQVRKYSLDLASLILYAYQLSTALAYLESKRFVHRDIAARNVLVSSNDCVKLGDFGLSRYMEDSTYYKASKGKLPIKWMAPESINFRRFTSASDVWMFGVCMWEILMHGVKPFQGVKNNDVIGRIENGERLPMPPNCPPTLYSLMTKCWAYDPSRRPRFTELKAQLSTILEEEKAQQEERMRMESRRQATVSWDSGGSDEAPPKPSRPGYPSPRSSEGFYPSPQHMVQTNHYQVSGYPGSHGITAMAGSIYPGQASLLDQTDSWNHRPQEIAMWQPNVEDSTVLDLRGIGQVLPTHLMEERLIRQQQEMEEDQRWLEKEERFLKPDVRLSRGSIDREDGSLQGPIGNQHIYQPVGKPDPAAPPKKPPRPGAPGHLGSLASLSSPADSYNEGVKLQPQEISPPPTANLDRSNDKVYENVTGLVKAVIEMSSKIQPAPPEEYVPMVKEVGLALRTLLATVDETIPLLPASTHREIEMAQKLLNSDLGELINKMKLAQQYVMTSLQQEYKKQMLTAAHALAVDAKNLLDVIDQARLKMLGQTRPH
assay procedure: FAK Enzyme Assay (TRF detection)
Assay type: biochemical
measurement context: 10 μM ATP; average of two or more determinations; class symbols
pIC50: −log10 of the molar value.

O=C1Nc2cccc(c2)Nc2ncc(Cl)c(n2)Nc2cccc1c2 [Example 1] :: < 5.00
CN1CCN(c2ccc3cc2/C=C\c2cccc(c2)Nc2nc(ncc2Cl)N3)CC1 [Example 2] :: 6.00 to 7.00

What value of pIC50 has been reported for the following molecule? CNC(=O)c1ccc2cc1Nc1nc(ncc1Cl)Nc1ccc(N3CCN(C)CC3)c(c1)/C=C\2 [Example 16]
6.00 to 7.00

What value of pIC50 has been reported for the following molecule? COc1ccc2cc1Nc1nc(ncc1Cl)Nc1ccc(N3CCN(C)CC3)c(c1)/C=C\2 [Example 13]
6.00 to 7.00

What value of pIC50 has been reported for the following molecule? CN1CCN(c2ccc3cc2CCc2ccc(N(C)S(C)(=O)=O)c(c2)Nc2nc(ncc2Cl)N3)CC1 [Example 10]
> 8.00

What value of pIC50 has been reported for the following molecule? CN1CCN(c2ccc3cc2CCc2cccc(c2)Nc2nc(ncc2Cl)N3)CC1 [Example 3]
6.00 to 7.00

What value of pIC50 has been reported for the following molecule? COc1cc(N2CCN(C)CC2)c2cc1Nc1ncc(Cl)c(n1)Nc1cc(ccc1N(C)S(C)(=O)=O)/C=C\2 [Example 4]
> 8.00

What value of pIC50 has been reported for the following molecule? CN1CCN(c2ccc3cc2[C@H](O)[C@H](O)c2cccc(c2)Nc2nc(ncc2Cl)N3)CC1 [Example 27]
5.00 to 6.00

###

pIC50: −log10 of the molar value.
Reported pIC50 for target or system baculovirus-expressed JAK2 (Homo sapiens, UniProt O60674), by entry.

Example compounds with recorded pIC50:
Clc1cnc2nc1Nc1cccc(c1)/C=C\c1cc(ccc1OCCN1CCCC1)N2 :: > 8.00
COc1cc(C2CCN(C)CC2)c2cc1Nc1ncc(Cl)c(n1)Nc1cc(ccc1N(C)S(C)(=O)=O)CC2 :: 6.00 to 7.00
CNC(=O)c1ccc2cc1Nc1nc(ncc1Cl)Nc1ccc(N3CCN(C)CC3)c(c1)/C=C\2 :: 7.00 to 8.00
COc1cc(C2CCNCC2)c2cc1Nc1ncc(Cl)c(n1)Nc1cc(ccc1N(C)S(C)(=O)=O)CC2 :: 7.00 to 8.00
O=C1Nc2cccc(c2)Nc2ncc(Cl)c(n2)Nc2cccc1c2 :: 6.00 to 7.00

Param readout= pIC50; system= baculovirus-expressed JAK2 (Homo sapiens, UniProt O60674); entry= "COc1cc(N2CCN(C)CC2)c2cc1Nc1ncc(Cl)c(n1)Nc1cc(ccc1S(=O)(=O)C(C)C)CC2" ; returns value.
6.00 to 7.00

Param readout= pIC50; system= baculovirus-expressed JAK2 (Homo sapiens, UniProt O60674); entry= "CN1CCN(c2ccc3cc2[C@H](O)[C@H](O)c2cccc(c2)Nc2nc(ncc2Cl)N3)CC1" ; returns value.
7.00 to 8.00

Param readout= pIC50; system= baculovirus-expressed JAK2 (Homo sapiens, UniProt O60674); entry= "O[C@@H]1c2cccc(c2)Nc2nc(ncc2Cl)Nc2cccc(c2)[C@@H]1O" ; returns value.
> 8.00

Param readout= pIC50; system= baculovirus-expressed JAK2 (Homo sapiens, UniProt O60674); entry= "CN1CCN(c2ccc3cc2CCc2ccc(N(C)S(C)(=O)=O)c(c2)Nc2nc(ncc2Cl)N3)CC1" ; returns value.
> 8.00

###

system under test: recombinant human FAK (Homo sapiens, UniProt Q05397)
Construct: purchased Invitrogen PV3832; host or cells: baculovirus expression system
assay procedure: FAK Enzyme Assay (TRF detection)
Type: biochemical
measurement context: 10 μM ATP; average of two or more determinations; class symbols
pIC50: −log10 of the molar value.
measure: pIC50

Example molecules with recorded pIC50:
COc1cc(C2CCN(C)CC2)c2cc1Nc1ncc(Cl)c(n1)Nc1cc(ccc1N(C)S(C)(=O)=O)CC2 [Example 8] :: > 8.00
CC(C)S(=O)(=O)c1ccc2cc1Nc1nc(ncc1Cl)Nc1ccc(N3CCN(C)CC3)c(c1)/C=C\2 [Example 11] :: 7.00 to 8.00

Param readout= pIC50; system= recombinant human FAK (Homo sapiens, UniProt Q05397); entry= CN1CCN(c2ccc3cc2CCc2ccc(S(C)(=O)=O)c(c2)Nc2nc(ncc2Cl)N3)CC1 [Example 19] ; returns value.
7.00 to 8.00

Param readout= pIC50; system= recombinant human FAK (Homo sapiens, UniProt Q05397); entry= FC(F)(F)c1cnc2nc1Nc1cccc(c1)CCc1cccc(c1)N2 [Example 30] ; returns value.
5.00 to 6.00

###

Listing of recorded IC50 by entry.
system under test: baculovirus-expressed ALK (Homo sapiens)
Construct: host or cells: baculovirus expression system
assay procedure: ALK Kinase Assay (ELISA/TRF)
Format: biochemical
measurement context: 1 μM ATP (Km level); given as numeric bound

FC(F)(F)c1cnc2nc1Nc1cccc(c1)CCc1cccc(c1)N2 :: > 3 µM

What value of IC50 has been reported for the following molecule? "Clc1cnc2nc1Nc1cccc(c1)/C=C\c1cc(ccc1N1CCOCC1)N2"
> 3 µM

###

Listing of recorded IC50 by entry.
system under test: baculovirus-expressed ALK (Homo sapiens, UniProt Q9UM73)
Construct: host or cells: baculovirus expression system
Sequence (Q9UM73 19-1620): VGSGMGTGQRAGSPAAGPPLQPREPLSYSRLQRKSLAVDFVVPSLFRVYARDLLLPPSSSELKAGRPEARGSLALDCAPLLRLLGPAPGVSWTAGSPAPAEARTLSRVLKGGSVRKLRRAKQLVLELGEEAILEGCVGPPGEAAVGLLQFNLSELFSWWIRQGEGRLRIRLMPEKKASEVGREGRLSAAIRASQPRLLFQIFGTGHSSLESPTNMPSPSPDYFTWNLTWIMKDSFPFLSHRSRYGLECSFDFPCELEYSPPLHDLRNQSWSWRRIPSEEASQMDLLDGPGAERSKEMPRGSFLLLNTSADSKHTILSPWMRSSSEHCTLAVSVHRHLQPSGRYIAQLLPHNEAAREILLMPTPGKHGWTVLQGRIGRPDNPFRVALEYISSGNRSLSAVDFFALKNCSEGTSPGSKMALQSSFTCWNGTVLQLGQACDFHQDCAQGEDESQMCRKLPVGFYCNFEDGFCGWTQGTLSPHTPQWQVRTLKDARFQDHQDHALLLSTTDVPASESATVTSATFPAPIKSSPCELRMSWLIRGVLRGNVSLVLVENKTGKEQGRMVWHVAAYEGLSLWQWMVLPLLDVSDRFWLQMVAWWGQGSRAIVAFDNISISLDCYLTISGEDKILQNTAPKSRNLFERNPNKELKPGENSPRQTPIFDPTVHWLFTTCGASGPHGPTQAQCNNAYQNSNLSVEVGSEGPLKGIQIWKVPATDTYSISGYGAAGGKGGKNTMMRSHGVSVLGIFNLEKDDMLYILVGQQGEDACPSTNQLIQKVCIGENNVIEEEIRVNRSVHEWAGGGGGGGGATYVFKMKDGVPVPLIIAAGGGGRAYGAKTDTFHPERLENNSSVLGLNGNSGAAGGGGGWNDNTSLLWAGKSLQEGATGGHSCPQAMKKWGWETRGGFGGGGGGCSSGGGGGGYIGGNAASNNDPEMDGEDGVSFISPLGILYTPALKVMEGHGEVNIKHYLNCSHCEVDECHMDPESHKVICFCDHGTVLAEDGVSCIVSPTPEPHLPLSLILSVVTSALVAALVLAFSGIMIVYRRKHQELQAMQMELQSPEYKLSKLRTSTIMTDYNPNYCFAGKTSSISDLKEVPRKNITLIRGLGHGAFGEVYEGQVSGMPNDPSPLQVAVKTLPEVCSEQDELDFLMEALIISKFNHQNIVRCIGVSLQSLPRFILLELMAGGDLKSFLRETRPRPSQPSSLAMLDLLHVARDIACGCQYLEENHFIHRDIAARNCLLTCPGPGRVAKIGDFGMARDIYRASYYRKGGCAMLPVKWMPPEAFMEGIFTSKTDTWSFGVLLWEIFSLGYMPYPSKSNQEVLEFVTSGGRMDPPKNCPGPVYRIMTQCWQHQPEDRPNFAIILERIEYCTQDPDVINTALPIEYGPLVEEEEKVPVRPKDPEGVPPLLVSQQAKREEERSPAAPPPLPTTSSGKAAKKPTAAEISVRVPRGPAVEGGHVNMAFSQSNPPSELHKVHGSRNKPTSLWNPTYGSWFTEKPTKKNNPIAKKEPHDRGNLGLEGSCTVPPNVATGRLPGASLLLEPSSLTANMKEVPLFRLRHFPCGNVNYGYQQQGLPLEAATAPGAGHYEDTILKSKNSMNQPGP
assay procedure: ALK Kinase Assay (ELISA/TRF)
Type: biochemical
measurement context: 1 μM ATP (Km level); average of two or more determinations; class symbols

COc1cc(C2CCN(C)CC2)c2cc1Nc1ncc(Cl)c(n1)Nc1cc(ccc1N(C)S(C)(=O)=O)/C=C\2 :: 10 to 100 nM
CNC(=O)c1ccc2cc1Nc1nc(ncc1Cl)Nc1ccc(N3CCN(C)CC3)c(c1)/C=C\2 :: 101 to 1000 nM
CC(C)S(=O)(=O)c1ccc2cc1Nc1nc(ncc1Cl)Nc1ccc(N3CCN(C)CC3)c(c1)/C=C\2 :: 10 to 100 nM
Clc1cnc2nc1Nc1cccc(c1)CCc1cc(ccc1N1CCOCC1)N2 :: > 10000 nM
CN1CCN(c2ccc3cc2CCc2ccc(S(C)(=O)=O)c(c2)Nc2nc(ncc2Cl)N3)CC1 :: 10 to 100 nM

Param readout= IC50; system= baculovirus-expressed ALK (Homo sapiens, UniProt Q9UM73); entry= "Clc1cnc2nc1Nc1cccc(c1)/C=C\c1cc(ccc1OCCN1CCCC1)N2" ; returns value.
101 to 1000 nM

Param readout= IC50; system= baculovirus-expressed ALK (Homo sapiens, UniProt Q9UM73); entry= "O[C@@H]1c2cccc(c2)Nc2nc(ncc2Cl)Nc2cccc(c2)[C@@H]1O" ; returns value.
1000 to 10000 nM

Param readout= IC50; system= baculovirus-expressed ALK (Homo sapiens, UniProt Q9UM73); entry= "COc1ccc2cc1Nc1nc(ncc1Cl)Nc1ccc(N3CCOCC3)c(c1)CC2" ; returns value.
> 10000 nM

Param readout= IC50; system= baculovirus-expressed ALK (Homo sapiens, UniProt Q9UM73); entry= "CN1CCN(c2ccc3cc2/C=C\c2ccc(N(C)S(C)(=O)=O)c(c2)Nc2nc(ncc2Cl)N3)CC1" ; returns value.
10 to 100 nM

Param readout= IC50; system= baculovirus-expressed ALK (Homo sapiens, UniProt Q9UM73); entry= "COc1c2cc(c3c1CC[C@@H](N1CCOCC1)CC3)CCc1ccc(N(C)S(C)(=O)=O)c(c1)Nc1nc(ncc1Cl)N2" ; returns value.
10 to 100 nM

Param readout= IC50; system= baculovirus-expressed ALK (Homo sapiens, UniProt Q9UM73); entry= "O=C1Nc2cccc(c2)Nc2ncc(Cl)c(n2)Nc2cccc1c2" ; returns value.
> 10000 nM

Param readout= IC50; system= baculovirus-expressed ALK (Homo sapiens, UniProt Q9UM73); entry= "CN1CCN(c2ccc3cc2/C=C\c2ccc(S(C)(=O)=O)c(c2)Nc2nc(ncc2Cl)N3)CC1" ; returns value.
101 to 1000 nM

Param readout= IC50; system= baculovirus-expressed ALK (Homo sapiens, UniProt Q9UM73); entry= "COc1cc(C2CCN(C)CC2)c2cc1Nc1ncc(Cl)c(n1)Nc1cc(ccc1N(C)S(C)(=O)=O)CC2" ; returns value.
< 10 nM

Param readout= IC50; system= baculovirus-expressed ALK (Homo sapiens, UniProt Q9UM73); entry= "COc1cc(C2CCNCC2)c2cc1Nc1ncc(Cl)c(n1)Nc1cc(ccc1N(C)S(C)(=O)=O)CC2" ; returns value.
< 10 nM

Sourced from patent US9487529B2
